Reference for the values: patent US20230330254A1

# TARGET_SYSTEM: full-length human GLP1R on HEK293/CRE-Luc/hGLP1R cells (human, UniProt P43220 24-463)
# PROTOCOL: cell-based or functional assay
Quick reference: CRE-luc S/N of the listed items.
Expressed in fold, but write only the number.

Q: What CRE-luc S/N value was documented for this binder, REGN9278-M3190 (antibody, human IgG4 S228P, kappa, V domains shown, linker-payload M3190 (LP11) on Gln 3 of the N-terminal Q-tag LLQGSG, antibody-tethered drug conjugate; also called REGN9278 ATDC) VH: QVQLQQWGAGLLKPSETLSLTCAVYGGSFSGYYWSWIRQPPGKGLEWIGEINHAGSTNYNPSLKSRITISVDTSKNQFSLKLSSVTAADTAVYYCARGWYYGSGSYHRNWFDPWGQGTLVTVSS VL: EIVLTQSPGTLSLSPGERATLSCRASQSVYYSYLAWYQQKPGQAPRLLIYGASNRATGIPDRFSGSGSGTDFTLTISRLEPEDFAVYYCQQYGNSPWTFGQGTKVEIKR ?
A: 73.8

// moving on: another record for CRE-luc S/N
Q: Report CRE-luc S/N for REGN7988-M3190 (antibody, human IgG4 S228P, kappa, V domains shown, linker-payload M3190 (LP11) on Gln 3 of the N-terminal Q-tag LLQGSG) VH: QVQLVESGGGVVQPGRSLRLSCAASGFTFSGYGIHWVRQAPGKGLVWVAVIWYDGSFKYYADSVKGRFTISRDNSKNTLYLQMNSLRAEDTAVYYCARGDSSSSGRYYYYGMDVWGQGTTVTVSS VL: DIQMTQSPSSLSASVGDRVTITCRASQGIRNDLGWYQQKPGTAPKRLIFAASSLQSGVPSRFSGSGSGTEFTLTISSLQPEDFATYYCLQHNNYPPTFGGGTKVEIKR please.
A: 90.1
